assay: Volume of distribution (dissolved in DMSO) at 2 mg/kg of intravenous administration in rat was determined; assay type: ADME, organism-based; design: dose 2 mg/kg, route intravenous; settings: in vivo
observation type: Vd (L/kg)
Field: numeric (L/kg). Do not append units.

Tell me the measured Vd of CCCN(Cc1c(C(F)(F)F)nc2n(-c3c(C)cc(C)cc3C)c3ccccc3n12)CC1CC1 , please.
0.6

---

experiment: Brain concentration to plasma concentration ratio (dissolved in DMSO) at 2 mg/kg of intravenous administration in rat after 2 h; assay type: ADME, organism-based; set-up: dose 2 mg/kg, route intravenous; details: brain and plasma, read-out: B/P
observation type: Kp at 2 h
Simply state the number, no unit and no words.

Tell me the measured Kp at 2 h of CCCN(Cc1c(C(F)(F)F)nc2n(-c3c(C)cc(C)cc3C)c3ccccc3n12)CC1CC1 , please.
0.03

---

assay: Bioavailability (dissolved in DMSO) at 10 mg/kg of oral administration in rat was determined; type: ADME, organism-based; conditions: in vivo
observation type: bioavailability (%)
Field: numeric (%). Do not append units.

Tell me the measured bioavailability of CCCN(Cc1c(C(F)(F)F)nc2n(-c3c(C)cc(C)cc3C)c3ccccc3n12)CC1CC1 , please.
35

---

experiment: Terminal half life (dissolved in DMSO) at 2 mg/kg of intravenous administration in rat was determined; assay type: ADME, organism-based; set-up: dose 2 mg/kg, route intravenous; conditions: in vivo
observation type: half-life
I'd appreciate it if you included the unit after the number.

Tell me the measured half-life of CCCN(Cc1c(C(F)(F)F)nc2n(-c3c(C)cc(C)cc3C)c3ccccc3n12)CC1CC1 , please.
4.1 h

---

assay: Terminal half life (dissolved in DMSO) at 2 mg/kg of intravenous administration in rat was determined; details: in vivo
observation type: half-life (h)
Field: numeric (h). Do not append units.

Tell me the measured half-life of CCCN(Cc1c(C(F)(F)F)nc2n(-c3c(C)cc(C)cc3C)c3ccccc3n12)CC1CC1 , please.
4.1

---

test: Maximum peak plasma concentration (dissolved in DMSO) at 10 mg/kg of p.o. administration in rat was determined; details: po
observation type: Cmax

Tell me the measured Cmax of CCCN(Cc1c(C(F)(F)F)nc2n(-c3c(C)cc(C)cc3C)c3ccccc3n12)CC1CC1 , please.
2380 ng/mL

---

The entries below come with measured Ki values attached.
Target protein (sequence): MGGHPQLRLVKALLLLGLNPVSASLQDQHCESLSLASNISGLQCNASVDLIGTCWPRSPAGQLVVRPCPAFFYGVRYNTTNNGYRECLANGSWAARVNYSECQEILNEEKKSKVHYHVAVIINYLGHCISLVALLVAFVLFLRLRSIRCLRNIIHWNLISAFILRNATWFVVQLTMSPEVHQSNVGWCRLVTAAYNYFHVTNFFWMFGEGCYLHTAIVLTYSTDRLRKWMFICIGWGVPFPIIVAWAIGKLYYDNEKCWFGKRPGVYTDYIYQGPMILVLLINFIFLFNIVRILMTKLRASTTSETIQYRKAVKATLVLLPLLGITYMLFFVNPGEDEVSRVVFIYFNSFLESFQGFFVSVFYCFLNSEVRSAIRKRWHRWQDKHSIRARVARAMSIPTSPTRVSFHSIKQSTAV
Field: numeric (µM). Do not append units.

Example results:
CCCN(CCc1ccccc1)Cc1c(C(F)(F)F)nc2n(-c3c(C)cc(C)cc3C)c3ccccc3n12 | 0.25
CCCN(CC1CC1)C(=O)c1c(CC)nc2n(-c3c(C)cc(C)cc3C)c3ccccc3n12 | 0.57

Tell me the measured Ki of Cc1cc(C)c(-n2c3ccccc3n3c(CN(CCC(F)(F)F)CC4CC4)c(C(F)(F)F)nc23)c(C)c1 , please.
0.013

Tell me the measured Ki of CCCN(Cc1c(C(F)(F)F)nc2n(-c3ccc(Cl)cc3Cl)c3ccccc3n12)CC1CC1 , please.
0.37

Tell me the measured Ki of CCCN(CCC(F)(F)F)Cc1c(C(F)(F)F)nc2n(-c3c(C)cc(C)cc3C)c3ccccc3n12 , please.
0.068

Tell me the measured Ki of CCCN(CC1CC1)C(=O)c1c(CC)nc2n(-c3c(C)cc(C)cc3C)c3ccc(F)cc3n12 , please.
0.93

Tell me the measured Ki of CCN(Cc1c(C(F)(F)F)nc2n(-c3c(C)cc(C)cc3C)c3ccccc3n12)CC1CC1 , please.
0.028

Tell me the measured Ki of Cc1cc(C)c(-n2c3ccccc3n3c(CN(C)Cc4ccccc4)c(C(F)(F)F)nc23)c(C)c1 , please.
0.573

Tell me the measured Ki of CCN(CCC1CC1)Cc1c(C(F)(F)F)nc2n(-c3c(C)cc(C)cc3C)c3ccccc3n12 , please.
1.41

Tell me the measured Ki of Cc1cc(C)c(-n2c3ccccc3n3c(CN(CC4CC4)CC(F)(F)F)c(C(F)(F)F)nc23)c(C)c1 , please.
0.0071

Tell me the measured Ki of CC(C)c1ccc(-n2c3ccccc3n3c(CN(CC4CC4)CC4CC4)c(C(F)(F)F)nc23)c(Br)c1 , please.
0.054

Tell me the measured Ki of CCCN(Cc1c(C)nc2n(-c3c(C)cc(C)cc3C)c3ccccc3n12)CC1CC1 , please.
0.02

Tell me the measured Ki of Cc1cc(C)c(-n2c3ccccc3n3c(CN(CCC4CC4)CC(F)(F)F)c(C(F)(F)F)nc23)c(C)c1 , please.
0.653

Tell me the measured Ki of CCCN(Cc1c(CC)nc2n(-c3c(C)cc(C)cc3C)c3ccccc3n12)CC1CC1 , please.
0.021

Tell me the measured Ki of CCCCN(CC)Cc1c(C(F)(F)F)nc2n(-c3c(C)cc(C)cc3C)c3ccccc3n12 , please.
0.704

Tell me the measured Ki of CCCN(Cc1ccccc1)Cc1c(C(F)(F)F)nc2n(-c3c(C)cc(C)cc3C)c3ccccc3n12 , please.
4.05

These data points were gathered from ChEMBL document CHEMBL1142812.
